assayed-system: ERα (Homo sapiens)
Sequence (P03372 311-547 limits assumed): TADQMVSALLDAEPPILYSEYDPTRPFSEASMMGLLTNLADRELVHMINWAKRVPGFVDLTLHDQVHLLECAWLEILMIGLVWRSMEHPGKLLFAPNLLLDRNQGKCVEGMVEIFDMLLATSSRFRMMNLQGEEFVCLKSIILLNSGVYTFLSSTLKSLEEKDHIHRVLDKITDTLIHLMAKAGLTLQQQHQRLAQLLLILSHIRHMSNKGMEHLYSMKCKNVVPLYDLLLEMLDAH
experiment-summary: HEK293/GAL4/ERα antagonist assay (luciferase reporter)
Type: cell-based
experimental-conditions: Mean ± SD; 1 nM estradiol; read-out: IC50 (nM), antagonistic effect
quantity: IC50

Prompt: Any idea what IC50 was measured for FCCCN1CC[C@H](Nc2cnc(C3=C(CC(F)(F)F)CCCc4c3ccc3[nH]nc(F)c43)cn2)C1 ?
Response: 0.0857 nM
